Target: thrombin (alpha-thrombin) (Homo sapiens, UniProt P00734;P00734 P00734:315-363,P00734:364-622)
Assay: filter
Known Kd of a selection of binders
QUANTITY: Kd (nM)

{"columns": ["BINDER", "VALUE_MEASURED"],
 "data": [
  ["GCCUAGGTTGGGTAGGGTGGUGGC (XNA, 2'-OMe 1-4,21,22,24, rest DNA) [ARC2844]", 2.65],
  ["CGCCTAGGTTGGGTAGGGTGGTGGCG (ssDNA) [ARC2172]", 0.14],
  ["ACTGCCTAGGTTGGGTAGGGTGGTGGCAGT (ssDNA, PS between G23 and T24) [ARC2666]", 0.992],
  ["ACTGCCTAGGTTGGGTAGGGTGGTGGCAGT (XNA, 2'-OMe A8, rest DNA) [ARC2620]", 7.1]
]}
